system: LNCaP; experiment: Antiproliferative activity against human LNCAP cells assessed as reduction in cell growth incubated for 96 hrs by propidium iodide based 2D monolayer assay; assay type: functional
Kindly state IC50 for each of the entries shown.

These solved cases illustrate the format of a correct answer.
CC(O)(COc1cccc(S(F)(F)(F)(F)F)c1)C(=O)Nc1ccc(C#N)cc1C(F)(F)F (racemic)
9.9 µM
CC(O)(COc1ccc(OC(F)(F)F)cc1)C(=O)Nc1cccc(S(F)(F)(F)(F)F)c1 (racemic)
12.7 µM
CC(O)(COc1ccc(S(F)(F)(F)(F)F)cc1)C(=O)Nc1ccc(C(F)(F)F)cc1 (racemic)
11.7 µM
CC(O)(CS(=O)(=O)c1ccc(S(F)(F)(F)(F)F)cc1)C(=O)Nc1cccc(S(F)(F)(F)(F)F)c1 (racemic)
11.7 µM

Here is another molecule to look at.
Please list IC50 recorded for the molecule CC(O)(CS(=O)(=O)c1ccc(S(F)(F)(F)(F)F)cc1)C(=O)Nc1ccc([N+](=O)[O-])c(C(F)(F)F)c1 (racemic)
10 µM

###

system: LNCaP; assay: Antiproliferative activity against human LNCAP cells assessed as reduction in cell growth incubated for 96 hrs by propidium iodide based 2D monolayer assay; format: functional
Experimental Endpoint: pIC50
Give bare numbers, as −log10 of the molar value.

Study these solved cases before continuing.
CC(O)(CSc1cccc(S(F)(F)(F)(F)F)c1)C(=O)Nc1ccc([N+](=O)[O-])c(C(F)(F)F)c1 (racemic)
5.07
CC(O)(CS(=O)(=O)c1cccc(S(F)(F)(F)(F)F)c1)C(=O)Nc1ccc(C#N)cc1C(F)(F)F (racemic)
4.89
CC1(C)C(=O)N(c2ccc([N+](=O)[O-])c(C(F)(F)F)c2)C(=S)N1c1cccc(S(F)(F)(F)(F)F)c1
4.00

Please indicate pIC50 recorded for CC1(C)C(=O)N(c2cccc(S(F)(F)(F)(F)F)c2)C(=S)N1c1ccc(C(F)(F)F)cc1
5.28

###

tested on: LNCaP; assay: Antiproliferative activity against human LNCAP cells assessed as reduction in cell growth incubated for 96 hrs by propidium iodide based 2D monolayer assay; format: functional
Experimental Endpoint: pIC50
Numbers only, as −log10 of the molar value.

Illustrative cases are given below, each with its answer.
CC(O)(CSc1cccc(C(F)(F)F)c1)C(=O)Nc1cccc(S(F)(F)(F)(F)F)c1 (racemic)
4.90
CC(O)(CS(=O)(=O)c1ccccc1OC(F)(F)F)C(=O)Nc1cccc(S(F)(F)(F)(F)F)c1 (racemic)
5.05
CC(O)(COc1ccc(C(F)(F)C(F)(F)F)cc1)C(=O)Nc1cc(C(F)(F)F)cc(C(F)(F)F)c1 (racemic)
5.57
CC(O)(COc1cc(C(F)(F)F)cc(C(F)(F)F)c1)C(=O)Nc1ccc(S(F)(F)(F)(F)F)cc1 (racemic)
5.64

Each compound below has a reported value. Please supply its pIC50.
1. CC(O)(CSc1ccc(F)cc1)C(=O)Nc1cccc(S(F)(F)(F)(F)F)c1 (racemic)
2. CC(O)(CSc1ccc(C(F)(F)F)cn1)C(=O)Nc1ccc(S(F)(F)(F)(F)F)cc1 (racemic)
3. CC1(C)C(=O)N(c2ccc([N+](=O)[O-])c(C(F)(F)F)c2)C(=S)N1c1ccc(S(F)(F)(F)(F)F)cc1
4. CC1(C)C(=O)N(c2cccc(S(F)(F)(F)(F)F)c2)C(=S)N1c1cccc(C(F)(F)F)c1
5. CC(O)(COc1cc(C(F)(F)F)cc(C(F)(F)F)c1)C(=O)Nc1cccc(C(F)(F)C(F)(F)F)c1 (racemic)

1. 4.57
2. 4.91
3. 4.89
4. 5.47
5. 5.33
